B1: Azoarcus group I ribozyme (parent)
chain: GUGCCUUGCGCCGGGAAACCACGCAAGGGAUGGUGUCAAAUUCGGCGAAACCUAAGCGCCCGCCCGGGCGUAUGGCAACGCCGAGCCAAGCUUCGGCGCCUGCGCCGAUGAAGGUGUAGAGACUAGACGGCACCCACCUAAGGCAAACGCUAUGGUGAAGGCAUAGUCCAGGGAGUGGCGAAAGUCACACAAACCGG

variants of: B1; experiment: reverse-splicing fitness (ratio to wild type); higher = more active; in vitro selection; Mg2+ level not given
READOUT_LABEL: reverse-splicing fitness
Give bare numbers.

Examples with their reported reverse-splicing fitness follow.
# SEQUENCE_CHANGE, reverse-splicing fitness
measured = [
    ("A111C A120C A145U", 0.589),
    ("A111G A120G A145C C150G C169G U176G", 0.00389),
    ("C82U A120G A145U C150A C169G U176C", 0.0133),
    ("C82A A111C A120G A145C C150G C169U U176C", 0.0101),
    ("C82U A111C A120C A145C C150U U176G", 0.0052),
    ("C82A A111C A120G A145C U176C", 0.0134),
    ("C82G A111G A120G A145C C169U U176G", 0.00427),
    ("C82U A111C A120C C150G U176A", 0.00528),
    ("C82U A111C A145U C150A C169U U176G", 0.00805),
    ("C82A A111U A120G C150G U176A", 0.00663),
]

Would you mind listing reverse-splicing fitness for each of the following variants?
1. C82A A120U A145C C150U C169G U176A
2. C82U A111U A120U A145U C150U C169A
3. C82G A111G A120C A145G C150U U176G
4. C82G A111U A120C A145U U176A
5. A111G A120C A145U C150U U176C
6. C82U A120G A145G C169A

[0.00237, 0.00254, 0.0117, 0.0204, 0.357, 0.018]

Please give reverse-splicing fitness, item by item, for the list that follows.
1. A111G A120C A145G C150U C169G
2. C82A A120C U176C
3. C82A A111G A120U C169U U176A
4. C82U A120U A145U U176A
5. C82A A111G A120U A145G C150U C169A U176A

1: 0.0142; 2: 0.056; 3: 0.00447; 4: 0.0411; 5: 0.00727

Report measured reverse-splicing fitness; entry is C82U A111C A120C A145C C150A C169U U176C 0.0117
